- EXPERIMENTAL_TARGET: integrin αVβ3 (Homo sapiens, UniProt P05106+P06756)
- Construct: expressed in transfected cells
- ASSAY_COMMENT: Competition with cRGDfK-TF5WS binding to αVβ3 on K562 transfectants
ASSAY_READOUT: pIC50
Recall that pIC50 is obtained by taking minus log10 of the concentration measured in molar.

Inquiry: // query pIC50 value for entry C[C@H](N)C(=O)N[C@H]1CSSC[C@@H](C(=O)NCC(=O)O)NC(=O)[C@H](Cc2c[nH]c3ccccc23)NC(=O)CNC(=O)[C@H](CC(=O)O)NC(=O)CNC(=O)[C@H](CCCNC(=N)N)NC1=O
Reply text: 6.12

----------
- EXPERIMENTAL_TARGET: integrin αVβ3 (Homo sapiens, UniProt P05106+P06756)
- Construct: expressed in transfected cells
- ASSAY_COMMENT: Competition with cRGDfK-TF5WS binding to αVβ3 on K562 transfectants
- SETTINGS: Kd αVβ3, L15 + 1 mM Mn2+, 1% BSA; competition with 25 nM cRGDfK-TF5WS
- Source text: Source data are provided as a Source Data file. […] Source data are provided as a Source Data file. (1 picture or pasted object on this page, not shown here)
ASSAY_READOUT: pKd
Recall that pKd is obtained by taking minus log10 of the concentration measured in molar.

Inquiry: // query pKd value for entry C[C@H](N)C(=O)N[C@H]1CSSC[C@@H](C(=O)NCC(=O)O)NC(=O)[C@H](Cc2c[nH]c3ccccc23)NC(=O)CNC(=O)[C@H](CC(=O)O)NC(=O)CNC(=O)[C@H](CCCNC(=N)N)NC1=O
Reply text: 6.77

----------
- EXPERIMENTAL_TARGET: integrin αVβ5 (Homo sapiens, UniProt P06756+P18084)
- ASSAY_COMMENT: Competition with cRGDfK-TF5WS binding to αVβ5 on K562 transfectants
- SETTINGS: Kd αVβ5, L15 + 1 mM Mn2+, 1% BSA; competition with 25 nM cRGDfK-TF5WS
ASSAY_READOUT: Kd (nM)
Give just the number in nM; leave the unit off.

Inquiry: Provide the documented Kd with integrin αVβ5 (Homo sapiens, UniProt P06756+P18084) as the system for C[C@H](N)C(=O)N[C@H]1CSSC[C@@H](C(=O)NCC(=O)O)NC(=O)[C@H](Cc2c[nH]c3ccccc23)NC(=O)CNC(=O)[C@H](CC(=O)O)NC(=O)CNC(=O)[C@H](CCCNC(=N)N)NC1=O
Reply text: 50

----------
- EXPERIMENTAL_TARGET: integrin αVβ5 (Homo sapiens, UniProt P06756+P18084)
- Construct: expressed in transfected cells
- ASSAY_COMMENT: Competition with cRGDfK-TF5WS binding to αVβ5 on K562 transfectants
- SETTINGS: EC50 αVβ5, L15, no Mn2+; competition with 50 nM cRGDfK-TF5WS
- Source text: Source data are provided as a Source Data file. […] Source data are provided as a Source Data file. (1 picture or pasted object on this page, not shown here)
ASSAY_READOUT: pEC50
Recall that pEC50 is obtained by taking minus log10 of the concentration measured in molar.

Inquiry: // query pEC50 value for entry C[C@H](N)C(=O)N[C@H]1CSSC[C@@H](C(=O)NCC(=O)O)NC(=O)[C@H](Cc2c[nH]c3ccccc23)NC(=O)CNC(=O)[C@H](CC(=O)O)NC(=O)CNC(=O)[C@H](CCCNC(=N)N)NC1=O
Reply text: 6.44
